Each recorded value in this set is attributed to patent US20250163104A1.

experimentalSystem: human PD-1 / PD-L1-Ig binding on Jurkat cell line over-expressing human PD-1 (Jurkat-PD-1) (Homo sapiens, UniProt Q15116)
Construct: expressed in transfected cells; host or cells: Jurkat
Sequence (Q15116 25-288): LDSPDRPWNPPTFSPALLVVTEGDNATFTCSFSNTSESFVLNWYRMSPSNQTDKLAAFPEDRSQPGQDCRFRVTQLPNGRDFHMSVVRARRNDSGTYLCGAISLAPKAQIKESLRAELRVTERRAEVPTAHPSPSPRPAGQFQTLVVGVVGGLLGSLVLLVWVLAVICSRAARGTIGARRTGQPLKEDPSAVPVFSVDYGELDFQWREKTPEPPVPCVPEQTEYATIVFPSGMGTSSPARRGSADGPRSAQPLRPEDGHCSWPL
assayDetails: Jurkat-PD-1 Cell Binding High-Content Screening Assay (CBA)
Assay type: cell-based
testConditions: Jurkat-PD-1 cells, PE-labeled PD-L1-Ig 20 nM final; read-out: Jurkat HPD1_PDL1 IC50
assayMetric: IC50
Could you kindly put the unit after your number?

I would be grateful if you could share the reported IC50 for `CC(C)C[C@H]1NC(=O)[C@H](CCCN)NC(=O)[C@H](CCCNC(N)=O)NC(=O)[C@H](Cc2ccc(-c3ccccc3)cc2)NC(=O)[C@H](C(C)C)NC(=O)[C@H](Cc2c[nH]c3ccccc23)NC(=O)[C@H](CC(=O)O)NC(=O)[C@H](Cc2ccncc2)NC(=O)[C@H](Cc2ccc(OCC(=O)O)cc2)NC(=O)CSC[C@@H](C(=O)N[C@@H](C)C(N)=O)NC(=O)[C@H]([C@@H](C)O)NC(=O)[C@H](C(C)C)NC(=O)[C@H](CC2CCCCC2)NC(=O)[C@H](CCN)NC1=O` .
12.1 nM
